Items are presented alongside their recorded GI50.
test system: NCI-H460; assay: NCI tumour cell line growth inhibition, 48 h
Activity calls are given as the source filed them. No stated cut-off is given here; in the data, active = GI50 up to about 1.1 µM and inactive = higher.

Input line: State the recorded GI50 for this entry: CCCN1C(=O)C/C(=C\C(C)=O)Nc2ccccc21
Output line: > 100 µM (inactive)

Input line: What would you report for COC(=O)[C@H]1[C@H]2C[C@@H]3c4[nH]c5cc(OC)ccc5c4CCN3C[C@H]2C[C@@H](OC(=O)c2cc(OC)c(OC)c(OC)c2)[C@@H]1OC ?
Output line: 18.9 µM (inactive)

Input line: What would you report for CCOP(=O)(OCC)C(c1ccccc1)N(C(=O)NC(F)(F)F)c1ccc(C)cc1 (centres undefined) ?
Output line: > 100 µM (inactive)

Further cases:
Input line: State the recorded GI50 for this entry: S=c1cc(S)c2c(=S)sc3nc4ccccn4c(=S)c3c2s1
Output line: 21.3 µM (inactive)

Data credit: ChEMBL document CHEMBL1201862
